Assay: qHTS assay to test for compound auto fluorescence at 460 nm (blue) in HEK293 cell free culture (AID 720681)
Conditions: cell-free medium, autofluorescence 405/460 nm (blue); series mostly up to 91.3 µM
Activity calls are given as the source filed them. The call rests on the fitted dose curve; in most records, active means well fitted curve in the direction sought with a large enough effect in the repeat runs; inconclusive means weak or mixed curves; inactive means flat fitted curve, though single readings scatter.
property_name: outcome

// solved cases for outcome follow
O=Cc1ccc2c(c1)OCO2	inactive
O=C=Nc1ccc(Cl)cc1	inactive
c1cc2ccc3cccc4ccc(c1)c2c34	inactive
CCCCCCCCCCOC(=O)c1ccccc1C(=O)OCCCCCCCCCC	inactive
Cn1cc[n+](C)c1 (tested in a mixture with another compound)	inactive

Reported outcome of `C[N+](C)(C)CCCl` : inactive

Note to self: outcome recorded for `CCC(Br)(CC)C(=O)NC(N)=O` was inactive

Ref: PubChem BioAssay (Tox21)
